Let's look at some molecules and their measured IC50.
Biological target: UniProt P00533
Sequence (P00533 25-1210): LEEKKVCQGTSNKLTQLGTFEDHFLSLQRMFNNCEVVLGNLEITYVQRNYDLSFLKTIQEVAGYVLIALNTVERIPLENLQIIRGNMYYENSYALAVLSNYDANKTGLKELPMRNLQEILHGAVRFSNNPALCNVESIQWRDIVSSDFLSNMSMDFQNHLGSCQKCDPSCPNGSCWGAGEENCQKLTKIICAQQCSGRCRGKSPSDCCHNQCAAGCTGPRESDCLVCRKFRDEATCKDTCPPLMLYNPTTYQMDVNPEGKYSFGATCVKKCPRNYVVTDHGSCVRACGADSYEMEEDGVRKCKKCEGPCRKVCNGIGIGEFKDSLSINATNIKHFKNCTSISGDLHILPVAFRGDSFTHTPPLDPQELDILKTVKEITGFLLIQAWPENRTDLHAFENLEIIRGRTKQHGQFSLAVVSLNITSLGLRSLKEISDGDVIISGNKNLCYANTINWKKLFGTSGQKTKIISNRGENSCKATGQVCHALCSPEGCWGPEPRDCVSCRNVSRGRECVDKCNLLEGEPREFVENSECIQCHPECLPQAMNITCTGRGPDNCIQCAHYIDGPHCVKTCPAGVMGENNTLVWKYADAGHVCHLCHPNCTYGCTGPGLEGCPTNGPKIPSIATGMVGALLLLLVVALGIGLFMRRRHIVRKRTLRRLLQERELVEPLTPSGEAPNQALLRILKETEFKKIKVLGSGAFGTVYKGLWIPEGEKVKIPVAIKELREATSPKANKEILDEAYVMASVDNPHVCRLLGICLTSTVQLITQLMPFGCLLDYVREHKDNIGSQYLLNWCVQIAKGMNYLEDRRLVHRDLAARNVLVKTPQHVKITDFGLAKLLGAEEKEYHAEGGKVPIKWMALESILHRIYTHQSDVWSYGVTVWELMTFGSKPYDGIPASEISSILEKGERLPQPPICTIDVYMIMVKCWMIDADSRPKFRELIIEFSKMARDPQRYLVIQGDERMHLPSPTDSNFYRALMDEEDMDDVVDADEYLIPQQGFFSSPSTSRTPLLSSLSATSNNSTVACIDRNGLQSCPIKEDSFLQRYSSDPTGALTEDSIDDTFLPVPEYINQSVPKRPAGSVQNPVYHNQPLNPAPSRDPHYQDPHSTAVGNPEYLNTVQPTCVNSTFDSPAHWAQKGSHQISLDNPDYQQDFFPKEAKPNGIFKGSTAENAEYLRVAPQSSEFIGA
Assay: Biochemical EGFR kinase inhibition assay (Lance Ultra TR-FRET), wildtype
Conditions: IC50 WT (nM), 100 μM ATP
Structures can show the parent of a compound that is named as a salt.

| molecule | IC50 |
| --- | --- |
| CN1CCN(Cc2ccc(C#Cc3cnc(Nc4ccnc(-c5cnn(S(=O)(=O)C6CC6)c5)n4)cc3N3CCC(C)(O)CC3)cc2)CC1 [Example 368] | 197 nM |
| O=S(=O)(C1CC1)n1cc(-c2nccc(Nc3cc(N4CCC[C@H](O)C4)c(C#Cc4ccsc4)cn3)n2)cn1 [Example 228] | > 10000 nM |
| O=S(=O)(C1CC1)n1cc(-c2nccc(Nc3cc(N4CCCC(CO)C4)c(C#Cc4cnn(C5CCOCC5)c4)cn3)n2)cn1 (stereo not shown) [Example 100] | > 10000 nM |
| CN(C)CC1(F)CCN(c2cc(Nc3ccnc(-c4cnn(S(=O)(=O)C5CC5)c4)n3)ncc2C#Cc2cnn(C3CC3)c2)CC1 [Example 300] | > 10000 nM |
| Cn1cc(C#Cc2cnc(Nc3ccnc(-c4cnn(S(=O)(=O)C5CC5)c4)n3)cc2N2CCC(O)C(F)(F)C2)cn1 (stereo not shown) [Example 68] | > 10000 nM |
| O=S(=O)(C1CC1)n1cc(-c2nccc(Nc3cc(NC[C@H]4CC[C@H](CO)CC4)c(C#CC4CC5CCC4O5)cn3)n2)cn1 (stereo partly shown) [Example 425] | > 10000 nM |
| O=S(=O)(C1CC1)n1cc(-c2nccc(Nc3cc(N[C@H]4CC[C@@H](CO)CC4)c(C#Cc4cnn(C(F)(F)F)c4)cn3)n2)cn1 [Example 336] | > 10000 nM |
| CC1(CO)CCN(c2cc(Nc3ccnc(-c4cnn(S(=O)(=O)C5CC5)c4)n3)ncc2C#Cc2cnn(CC(F)F)c2)CC1 [Example 49] | 1260 nM |
| O=S(=O)(C1CC1)n1cc(-c2nccc(Nc3cc(NC4CCC(O)CC4)c(C#CC4CCCO4)cn3)n2)cn1 (stereo not shown) [Example 376] | > 10000 nM |
| C[C@]1(O)CCCN(c2cc(Nc3ccnc(-c4cnn(S(=O)(=O)C5CC5)c4)n3)ncc2C#Cc2cnn(C(F)(F)F)c2)C1 [Example 448] | > 10000 nM |
| Cn1cc(C#Cc2cnc(Nc3ccnc(-c4cnn(S(=O)(=O)C5CC5)c4)n3)cc2N2CCC3(CCNC3=O)CC2)cn1 [Example 79] | 7190 nM |
| O=S(=O)(C1CC1)n1cc(-c2nccc(Nc3cc(N[C@@H]4CCC[C@H](O)C4)c(C#Cc4cnn(CCF)c4)cn3)n2)cn1 [Example 46] | > 10000 nM |
| CN(C)CC1(C)CCN(c2cc(Nc3ccnc(-c4cnn(S(=O)(=O)C5CC5)c4)n3)ncc2C#CC2CCO[C@H]2C(F)(F)F)CC1 (stereo partly shown) [Example 418] | > 10000 nM |
| O=S(=O)(C1CC1)n1cc(-c2nccc(Nc3cc(NC4CCC(CO)CC4)c(C#CC4CCCO4)cn3)n2)cn1 (stereo not shown) [Example 374] | 9810 nM |
| O=C(c1ccc(C#Cc2cnc(Nc3ccnc(-c4cnn(S(=O)(=O)C5CC5)c4)n3)cc2N2CCC[C@@H](O)C2)cc1)N1CCC(O)CC1 [Example 444] | > 10000 nM |
| CC1(C#Cc2cnc(Nc3ccnc(-c4cnn(S(=O)(=O)C5CC5)c4)n3)cc2NC[C@H]2CC[C@H](O)CC2)CC1 [Example 403] | > 10000 nM |
| CN(C)CCCn1cc(C#Cc2cnc(Nc3ccnc(-c4cnn(S(=O)(=O)C5CC5)c4)n3)cc2N2CCCC(CO)C2)cn1 (stereo not shown) [Example 122] | 2780 nM |
| CC1(CO)CCN(c2cc(Nc3ccnc(-c4cnn(S(=O)(=O)C5CC5)c4)n3)ncc2C#CC2CCN(S(C)(=O)=O)C2)CC1 (stereo not shown) [Example 401] | 3010 nM |
| CC1(CO)CCN(c2cc(Nc3ccnc(-c4cnn(S(=O)(=O)C5CC5)c4)n3)ncc2C#Cc2cnn(CC3CC3)c2)CC1 [Example 48] | 2910 nM |
| O=S(=O)(C1CC1)n1cc(-c2nccc(Nc3cc(N4[C@@H]5CC[C@H]4C[C@H](CO)C5)c(C#Cc4cnn(C(F)(F)F)c4)cn3)n2)cn1 [Example 332] | > 10000 nM |
| CN(C)CCC1CCN(c2cc(Nc3ccnc(-c4cnn(S(=O)(=O)C5CC5)c4)n3)ncc2C#Cc2cnn(C)c2)CC1 [Example 294, formate] | 351 nM |
| Cn1cc(C#Cc2cnc(Nc3ccnc(-c4cnn(S(=O)(=O)C5CC5)c4)n3)cc2N2CCC(=O)CC2)cn1 [Example 7] | > 10000 nM |
| CC(C)Nc1cc(Nc2ccnc(-c3cnn(S(=O)(=O)C4CC4)c3)n2)ncc1C#Cc1cnn(C(C)C)c1 [Example 19] | > 10000 nM |
| CC1(C#Cc2cnc(Nc3ccnc(-c4cnn(S(=O)(=O)C5CC5)c4)n3)cc2N[C@H]2CC[C@@H](CO)CC2)CC1 [Example 402] | > 10000 nM |
| CC1(CO)CCN(c2cc(Nc3ccnc(-c4cnn(S(=O)(=O)C5CC5)c4)n3)ncc2C#Cc2ccccn2)CC1 [Example 259] | 3400 nM |
